# Tested on: U251 CNS
# METHOD: NCI tumour cell line growth inhibition, 48 h
The entries below come with measured TGI values attached.

{"columns": ["MOLECULE", "TESTED TARGET", "TGI"],
 "data": [
  ["CC(C)(C)OC(=O)Nc1cc(-c2ccccc2)co1", "U251 CNS", "> 100 µM"],
  ["CCn1c(-c2ccc(C)cc2)cs/c1=N\\C(P(=O)(O)O)P(=O)(O)O", "U251 CNS", "> 100 µM"],
  ["Cc1ccc2cccc3c2c1CC1(C3=O)S(=O)(=O)OCCOS1(=O)=O", "U251 CNS", "> 100 µM"],
  ["COC1CC2C=CC3C4OC2(/C(C)=C/C(C)C(C(C)O)OC1=O)C3C(O)C(C)C4OC(=O)c1ccc[nH]1 (stereo not given)", "U251 CNS", "> 100 µM"],
  ["N/C(=N\\c1nc2ccccc2s1)NC(=O)Nc1ccccc1Cl", "U251 CNS", "5.57 µM"]
]}

Request: Which value of TGI has been reported for CN[C@@H](C)[C@H](OP(=O)(O)OC1[C@@H](O)[C@H](O)C(O)[C@H](O)[C@@H]1O)c1ccccc1 (stereo not given in full) in the records?
Response: > 100 µM

Request: Which value of TGI has been reported for `O=c1c(-c2ccccc2Cl)coc2cc(F)ccc12` in the records?
Response: 35.3 µM

Request: Which value of TGI has been reported for `CC1(C)N=C(/C=N/O)C(C)(C)N1O` in the records?
Response: > 100 µM

Request: Which value of TGI has been reported for `CN(C)Cc1cccc(CN(C)C)[c]1[Sn]([Br])([c]1ccccc1)[c]1ccccc1` in the records?
Response: 15.5 µM

Request: Which value of TGI has been reported for `COc1cc2c(=O)n(CCCn3ccnc3)c3c4cc5c(cc4ccc3c2cc1OC)OCO5` in the records?
Response: 15.8 µM
